assay: qHTS assay to identify small molecule antagonists of the thyroid receptor (TR) signaling pathway (AID 743065); settings: GH3.TRE-Luc, T3-stimulated luciferase inhibition, 23.5 h; series mostly up to 70.3 µM; also: nearly all actives have a fitted effect of over 55% in size
Results filed as inconclusive are left out. Calls of active or inactive are those of the source. Calls follow the shape of the dose curve; as a rule, active = well fitted inhibition curve with a large enough effect in the repeat runs; inconclusive = weak or mixed curves; inactive = no such curve, though single readings can be large or run the other way.
Form entry, call: pick from active, inactive

Query :: Given C[C@@H]1O[C@@H](O[C@@H]2C=C3CC[C@@H]4[C@H](CC[C@]5(C)[C@@H](c6ccc(=O)oc6)CC[C@]45O)[C@@]3(C)CC2)[C@H](O)[C@H](O)[C@H]1O , state the outcome it received in this test.
Result :: inactive

---

assay: qHTS assay to identify small molecule agonists of the estrogen receptor alpha (ER-alpha) signaling pathway in the presence of an antagonist - cell viability counter screen (AID 1259386); settings: VM7Luc4E2 viability, CellTiter-Fluor fluorescence, 22 h; series mostly up to 92.4 µM;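 also: cells exposed to compounds for 22 h at 37 °C before the viability read; nearly all actives have a fitted effect of over 30% in size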
Results filed as inconclusive are left out. Activity calls are given as the source filed them. Calls come from the whole dose curve; as a rule, active = well fitted cell-killing curve with a large enough effect in the repeat runs; inconclusive = weak or mixed curves, or effect the other way; inactive = no such curve, though single readings can be large or run the other way.
Form entry, call: pick from 1 (yes) (active), 0 (no) (inactive)

Query :: Given N#Cc1ccccc1Cl , state the outcome it received in this test.
Result :: 0 (no)

Query :: Also CCCN(CC)CC1COC2(CCC(C(C)(C)C)CC2)O1 (stereo unspecified) , if possible.
Result :: 0 (no)

Query :: Also Nc1ccc(Sc2ccc(N)cc2)cc1 , if possible.
Result :: 0 (no)

Query :: Also COc1cccc(C(=O)CCN[C@@H](C)[C@H](O)c2ccccc2)c1 , if possible.
Result :: 0 (no)

Query :: Also CC(=O)C(Cl)(Cl)Cl , if possible.
Result :: 1 (yes)

Query :: Also C[C@H]1O[C@@H](O[C@H]2[C@@H](O)C[C@H](O[C@H]3[C@@H](O)C[C@H](O[C@H]4CC[C@@]5(C)[C@H](CC[C@@H]6[C@@H]5CC[C@]5(C)[C@@H](C7=CC(=O)OC7)CC[C@]65O)C4)O[C@@H]3C)O[C@@H]2C)C[C@H](O)[C@@H]1O , if possible.
Result :: 0 (no)

Query :: Also Oc1c(Cl)c(Cl)cc(Cl)c1Cl , if possible.
Result :: 0 (no)

Query :: Also ClCCN1CCOCC1 , if possible.
Result :: 0 (no)

---
Query :: Given c1ccc(Nc2ccc3ccccc3c2)cc1 , state the outcome it received in this test.
Result :: 0 (no)

Query :: Also CCCSP(=O)(OCC)SCCC , if possible.
Result :: 0 (no)

Query :: Also CCC(C)(C)C(=O)OC1=C(c2ccc(Cl)cc2Cl)C(=O)OC12CCCCC2 , if possible.
Result :: 0 (no)

---

experiment: qHTS assay for small molecule agonists of the p53 signaling pathway - cell viability (AID 651633); conditions: p53RE-bla HCT-116 viability, ATP luminescence, 16 h; series mostly up to 83.3 µM;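 also: p53RE-bla HCT reporter cells with a stable beta-lactamase p53 reporter; nearly all actives have a fitted effect of over 30% in size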
Inconclusive results are not listed. The source made the active and inactive calls. Calls follow the shape of the full dose curve.
reportedMetric: outcome

Query :: // lookup outcome for CCOCCOC(C)=O
Result :: inactive

Query :: Also CC(=O)Nc1ccc2c(c1)Cc1ccccc1-2 , if possible.
Result :: inactive

Query :: Also CC(C)OS(C)(=O)=O , if possible.
Result :: inactive

---

assay: A CellTox Green Cytotoxicity Assay to monitor cytotoxicity in HEK293 cells - 8 hour (AID 1224884); settings: CellTox Green fluorescence; series mostly up to 76.8 µM; also: nearly all actives have a fitted effect of over 35% in size
Records with an inconclusive call do not appear. Activity calls are given as the source filed them. Calls follow the shape of the dose curve; as a rule, active = well fitted activation curve with a large enough effect in the repeat runs; inconclusive = weak or mixed curves; inactive = flat fitted curve, though single readings scatter.
Form entry, call: pick from yes (1) = active, no (0) = inactive

Here are 2 molecules together with their reported answers.
Query :: Given CCOC(=O)CC(=O)CCl , state the outcome it received in this test.
Result :: no (0)

Query :: Also CCOC(=O)C1(c2ccccc2)CCN(CCC(C#N)(c2ccccc2)c2ccccc2)CC1 , if possible.
Result :: no (0)

---
Query :: Given C=CC(=O)OCC(COC(=O)C=C)(COC(=O)C=C)COC(=O)C=C , state the outcome it received in this test.
Result :: no (0)

Query :: Also COP(=O)(CCC(=O)NCO)OC , if possible.
Result :: no (0)

Query :: Also ClC1=C(Cl)[C@]2(Cl)[C@@H]3[C@@H](Cl)[C@@H](Cl)C[C@@H]3[C@@]1(Cl)C2(Cl)Cl , if possible.
Result :: no (0)

Query :: Also CCC(C)(C)C(=O)OC1=C(c2ccc(Cl)cc2Cl)C(=O)OC12CCCCC2 , if possible.
Result :: no (0)

Query :: Also COS(=O)(=O)c1ccc(C)cc1 , if possible.
Result :: no (0)

Query :: Also CCCCCCCCc1ccc(O)cc1 , if possible.
Result :: yes (1)

Query :: Also [Hg+2].[I-].[I-] , if possible.
Result :: yes (1)

Query :: Also Oc1cccc(-c2ccccc2)c1 , if possible.
Result :: no (0)

Query :: Also ClC1=C(Cl)[C@]2(Cl)[C@@H]3[C@@H]4C[C@@H]([C@H]5O[C@@H]45)[C@@H]3[C@@]1(Cl)C2(Cl)Cl , if possible.
Result :: yes (1)

---

assay: qHTS RealTime-Glo MT Cell Viability Assay in HepG2 cells - 0 hour (AID 1224889); conditions: RealTime-Glo luminescence; series mostly up to 76.8 µM; also: nearly all actives have a fitted effect of over 50% in size
Records with an inconclusive call do not appear. Active and inactive are the calls of the source. The call rests on the fitted dose curve; in most records, active means well fitted cell-killing curve with a large enough effect in the repeat runs; inconclusive means weak or mixed curves, or effect the other way; inactive means flat fitted curve, though single readings scatter.
Form entry, call: pick from active, inactive

Query :: Given COC(=O)N(C(=O)N1CO[C@@]2(C(=O)OC)Cc3cc(Cl)ccc3C2=N1)c1ccc(OC(F)(F)F)cc1 , state the outcome it received in this test.
Result :: inactive

Query :: Also CCCCCCCCCCCCCC[P+](CCCCCC)(CCCCCC)CCCCCC (tested in a mixture with another compound) , if possible.
Result :: inactive

---

experiment: A CellTox Green Cytotoxicity Assay to monitor cytotoxicity in HEK293 cells - 32 hour (AID 1224881); conditions: CellTox Green fluorescence; series mostly up to 76.8 µM; also: nearly all actives have a fitted effect of over 40% in size
Records with an inconclusive call do not appear. Calls of active or inactive are those of the source. Calls come from the whole dose curve; as a rule, active = well fitted activation curve with a large enough effect in the repeat runs; inconclusive = weak or mixed curves; inactive = flat fitted curve, though single readings scatter.
Form entry, call: pick from active, inactive

Here are 10 compounds together with their reported answers.
Query :: Given CN(CCCC(=O)c1cccnc1)N=O , state the outcome it received in this test.
Result :: inactive

Query :: Also C[C@@H]1CC[C@@]2(OC1)O[C@H]1[C@@H](O)[C@H]3[C@@H]4CC[C@H]5C[C@@H](O[C@@H]6O[C@H](CO)[C@H](O[C@@H]7O[C@H](CO)[C@@H](O)[C@H](O[C@@H]8OC[C@@H](O)[C@H](O)[C@H]8O)[C@H]7O[C@@H]7O[C@H](CO)[C@@H](O)[C@H](O[C@@H]8O[C@H](CO)[C@@H](O)[C@H](O)[C@H]8O)[C@H]7O)[C@H](O)[C@H]6O)[C@H](O)C[C@]5(C)[C@H]4CC[C@]3(C)[C@H]1[C@@H]2C , if possible.
Result :: active

Query :: Also O=C(O)C1C2CCC(O2)C1C(=O)O (configuration not stated) , if possible.
Result :: inactive

Query :: Also CCOP(=O)(NC(C)C)Oc1ccc(SC)c(C)c1 (configuration not stated) , if possible.
Result :: inactive

Query :: Also Oc1cc(Cl)c(Cl)c(Cl)c1 , if possible.
Result :: active

Query :: Also CCC[CH2][Sn]([CH2]CCC)([CH2]CCC)[O]C(=O)c1ccccc1 , if possible.
Result :: active

Query :: Also N#CC(Cl)Cl , if possible.
Result :: inactive

Query :: Also CCOP(=S)(OCC)SCS(=O)(=O)CC , if possible.
Result :: inactive

Query :: Also O=C(Nc1ccc2[nH]ccc2c1)c1cc2cc(F)ccc2n1Cc1cccc(F)c1 , if possible.
Result :: inactive

Query :: Also COCC(=O)N(c1c(C)cccc1C)[C@H](C)C(=O)OC , if possible.
Result :: inactive

---
Query :: Given CSCCCN=C=S , state the outcome it received in this test.
Result :: inactive

Query :: Also CNC(C)Cc1ccc2c(c1)OCO2 (configuration not stated) , if possible.
Result :: inactive

---

experiment: qHTS RealTime-Glo MT Cell Viability Assay in HEK293 cells - 24 hour (AID 1224886); conditions: RealTime-Glo luminescence; series mostly up to 76.8 µM; also: nearly all actives have a fitted effect of over 50% in size
Results filed as inconclusive are left out. Calls of active or inactive are those of the source. Calls come from the whole dose curve; as a rule, active = well fitted cell-killing curve with a large enough effect in the repeat runs; inconclusive = weak or mixed curves, or effect the other way; inactive = flat fitted curve, though single readings scatter.
Form entry, call: pick from yes (1) for active, no (0) for inactive

Query :: Given ClC1=C(Cl)[C@]2(Cl)[C@H]3[C@H]([C@H]4C=C[C@H]3C4)[C@@]1(Cl)C2(Cl)Cl , state the outcome it received in this test.
Result :: no (0)

---
Query :: Given CCC[CH2][Sn]([CH2]CCC)([CH2]CCC)[O]C(=O)c1ccccc1 , state the outcome it received in this test.
Result :: yes (1)

Query :: Also CCCCCCCCc1ccc(O)cc1 , if possible.
Result :: yes (1)

Query :: Also C=CC(=O)OCC(COC(=O)C=C)(COC(=O)C=C)COC(=O)C=C , if possible.
Result :: yes (1)

Query :: Also CC1(C)CC/C(=C/c2ccc(Cl)cc2)C1(O)Cn1cncn1 (stereo not drawn) , if possible.
Result :: yes (1)

Query :: Also SCc1ccco1 , if possible.
Result :: no (0)

Query :: Also N#C/C=C/c1ccccc1 , if possible.
Result :: no (0)

Query :: Also CN(CCCC(=O)c1cccnc1)N=O , if possible.
Result :: no (0)

Query :: Also ClCCN1CCOCC1 , if possible.
Result :: no (0)

Query :: Also CCOP(=S)(OCC)SCS(=O)(=O)C(C)(C)C , if possible.
Result :: no (0)

Query :: Also O=C(Nc1ccc2[nH]ccc2c1)c1cc2cc(F)ccc2n1Cc1cccc(F)c1 , if possible.
Result :: no (0)

Query :: Also CCCCCCCCCCCCCC[P+](CCCCCC)(CCCCCC)CCCCCC (tested in a mixture with another compound) , if possible.
Result :: yes (1)

Query :: Also COP(=S)(OC)Oc1cc(Cl)c(Br)cc1Cl , if possible.
Result :: no (0)

Query :: Also CCCCCCCCCCCCBr , if possible.
Result :: no (0)

Query :: Also CCCOCC(=Nc1ccc(Cl)cc1C(F)(F)F)n1ccnc1 , if possible.
Result :: yes (1)

Query :: Also C[C@@H](Oc1ccc(Cl)cc1Cl)C(=O)O , if possible.
Result :: no (0)
